For each record, write down the corresponding pKd.
# TARGET UNDER TEST: T1, C10orf54 (antigen of the KD values in Table 42) (human, UniProt Q9H7M9 33-311, limits assumed)
# T1 sequence: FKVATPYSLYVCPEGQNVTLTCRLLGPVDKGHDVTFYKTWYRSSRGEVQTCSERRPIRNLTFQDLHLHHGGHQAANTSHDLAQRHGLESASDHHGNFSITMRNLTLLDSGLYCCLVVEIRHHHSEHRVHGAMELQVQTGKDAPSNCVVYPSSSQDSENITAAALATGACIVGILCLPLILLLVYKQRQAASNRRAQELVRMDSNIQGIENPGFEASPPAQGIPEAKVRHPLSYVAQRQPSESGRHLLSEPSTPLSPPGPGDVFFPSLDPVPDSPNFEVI
# TEST: method and antigen form not stated
Lab note — pKd values are minus log10 of concentrations in M.

Asked: Which value of pKd has been reported for murine monoclonal antibody 26A (antibody, V domains shown, Mouse hybridoma antibody) VH: EVQLQQSGPELVKPGASMKISCKASGFSFTGYTMNWVKQSHVKNLEWIGLISPYNGGTSYNQKFKGKATLTVDKSSSTAYMELLSLTSEDSAVYYCARRAYGYAMDYWGQGTSVTVSS VL: QIVLTQSPAIMSASPGEKVTMTCSASSSVSYMYWYQQKPGSSPRLLIYDTSNLASGVPLRFSGSGSGTSYSLTISRMEAEDAATYYCQQWSSYPFTFGSGTKLEIK in the records?
Given back: 9.17

Asked: Which value of pKd has been reported for murine monoclonal antibody 321D (antibody, V domains shown, Mouse hybridoma antibody) VH: QVQLQQSGAELMKPGAAVKISCKATGYTFSSHWIEWVKQRPGHGLEWIGEILPGSGSTDYNEKFKGKATFTADTSSNTAYMQLSSLTSEDSAVYYCARWLLYYYAMDYWGQGTSVTVSS VL: DVLMTQTPLSLPVSLGDQASISCRSSQSIVHSNGNTYLEWYLQKPGQSPKLLIYKVSNRFSGVPDRFSGSGSGTDFTLKITRVEAEDLGVYYCFQGSHVPFTFGGGTKLEIK in the records?
Given back: 8.14
